# experimental.system: UniProt P28335
# method.description: Human 5-HT2C functional high throughput screening assay in CHO-K1 cells (calcium flux)
# Format: cell-based
# Design: expressed in transfected cells; host or cells: CHO-K1 cells
# particulars: EC50, 5-HT2C agonist activity; CHO-K1 cells; calcium flux
pEC50: −log10 of the molar value.
Classify as follows. Reported pEC50 greater than or equal to 8: True. Reported pEC50 below: False.

{"molecule": "CN1C[C@@H]2CNC(=O)c3c(OC(F)(F)F)cccc3[C@H]2C1 [Example 113]", "experimental.system": "UniProt P28335", "assigned.category": "True"}
{"molecule": "CN1C[C@H]2CNC(=O)c3c(F)cccc3[C@@H]2C1 (relative stereo) [Example 92]", "experimental.system": "UniProt P28335", "assigned.category": "False"}

Next molecule, please.
Query: Could you please find out whether CC(C)=Cc1ccc2c(c1)C(=O)NC[C@@H]1CN(C)C[C@@H]21 (relative stereo) [Example 197] has pEC50 that meets 8 or exceeds it?
Reply: True

====

# experimental.system: 5HT2B receptors (Homo sapiens)
# Construct: expressed in transfected cells; host or cells: CHO-K1 cells
# Sequence (P41595 whole entry): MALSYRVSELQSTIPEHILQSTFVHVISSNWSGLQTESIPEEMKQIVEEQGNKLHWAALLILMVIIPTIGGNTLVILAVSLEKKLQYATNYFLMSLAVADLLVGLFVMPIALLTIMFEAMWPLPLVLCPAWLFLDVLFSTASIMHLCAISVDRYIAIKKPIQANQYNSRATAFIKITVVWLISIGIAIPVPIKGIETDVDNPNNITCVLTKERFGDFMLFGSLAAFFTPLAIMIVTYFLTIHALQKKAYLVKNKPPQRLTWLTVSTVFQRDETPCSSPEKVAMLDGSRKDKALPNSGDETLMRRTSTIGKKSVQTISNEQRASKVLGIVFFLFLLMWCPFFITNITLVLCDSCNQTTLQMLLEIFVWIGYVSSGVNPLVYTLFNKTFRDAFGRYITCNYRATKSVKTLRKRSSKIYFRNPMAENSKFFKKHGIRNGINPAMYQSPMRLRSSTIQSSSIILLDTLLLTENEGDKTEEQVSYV
# method.description: Human 5-HT2B functional high throughput screening assay in CHO-K1 cells (calcium flux)
# Type: cell-based
# particulars: CHO-K1
readout.label: Emax (%)
Please respond with the number in % and leave the unit unwritten.

Use these answered entries as a reference point.
{"molecule": "Fc1cccc2c1[C@H]1CNC[C@@H]1CCO2 (relative stereo)", "readout.number": 40}
{"molecule": "c1ccc2c(c1)NCC[C@@H]1CNC[C@@H]21 (relative stereo)", "readout.number": 70}
{"molecule": "O=S(=O)(c1cccc(Cl)c1)N1Cc2cccnc2[C@@H]2CNC[C@H]2C1 (relative stereo)", "readout.number": 30}
{"molecule": "O=C1NC[C@@H]2CNC[C@H]2c2ccc(F)cc21 (relative stereo)", "readout.number": 100}
{"molecule": "Oc1cccc2c1[C@H]1CNC[C@@H]1CCO2 (relative stereo)", "readout.number": 30}

Query: Can you look up the measured Emax of CN1CC[C@@H]2CNC[C@H]2c2cccc(Cl)c21 (relative stereo) for me?
Reply: 95

====

# experimental.system: 5HT2C receptors (Homo sapiens, UniProt P28335)
# Sequence (P28335 33-458): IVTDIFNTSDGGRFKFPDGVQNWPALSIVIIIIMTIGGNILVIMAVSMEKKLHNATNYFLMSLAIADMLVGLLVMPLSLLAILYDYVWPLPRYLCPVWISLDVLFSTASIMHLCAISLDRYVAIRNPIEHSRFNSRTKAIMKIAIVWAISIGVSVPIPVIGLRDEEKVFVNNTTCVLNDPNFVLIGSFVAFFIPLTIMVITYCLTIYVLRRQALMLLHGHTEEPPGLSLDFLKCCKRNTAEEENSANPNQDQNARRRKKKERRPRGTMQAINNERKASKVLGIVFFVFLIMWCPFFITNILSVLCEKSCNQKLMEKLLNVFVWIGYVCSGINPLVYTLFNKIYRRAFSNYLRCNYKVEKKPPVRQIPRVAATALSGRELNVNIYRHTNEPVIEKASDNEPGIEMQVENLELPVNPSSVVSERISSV
# method.description: Human 5-HT2C functional high throughput screening assay in CHO-K1 cells (calcium flux)
# Format: cell-based
# Parameters: expressed in transfected cells; host or cells: CHO-K1 cells
# particulars: 5-HT2C agonist activity; CHO-K1 cells; calcium flux; read-out: EC50
readout.label: pEC50
Lab note: report pEC50 as minus log10 of the concentration in molar units, number only.

Use these answered entries as a reference point.
{"molecule": "CCCC(O)c1cccc(-c2ccc3c(c2)C(=O)NC[C@H]2CN(C)C[C@H]32)c1 (stereo partly shown)", "pEC50": 9.10}
{"molecule": "COc1cc(C)ccc1-c1ccc2c(c1)C(=O)NC[C@@H]1CN(C)C[C@@H]21 (relative stereo)", "pEC50": 7.15}
{"molecule": "CN1C[C@@H]2CNC(=O)c3cc(OCc4ccccc4F)ccc3[C@H]2C1", "pEC50": 9.00}
{"molecule": "COc1cccc(CN2C[C@H]3CNC(=O)c4ccccc4[C@@H]3C2)c1 (relative stereo)", "pEC50": 9.00}
{"molecule": "CN1C[C@H]2CNC(=O)c3cc(N4CCCCC4)ccc3[C@@H]2C1 (relative stereo)", "pEC50": 6.40}
{"molecule": "O=S(=O)(c1cccc(C(F)(F)F)c1)N1Cc2cccnc2[C@@H]2CNC[C@H]2C1 (relative stereo)", "pEC50": 6.40}

Query: Can you look up the measured pEC50 of O=C1NC[C@@H]2CN(Cc3ccccc3)C[C@H]2c2c1sc1ccccc21 (relative stereo) for me?
Reply: 6.00
